Target: T1, PUF60 460-559 RRM_3 (domain begin residue: 460, domain end residue: 559), Q9UHX1
T1 chain: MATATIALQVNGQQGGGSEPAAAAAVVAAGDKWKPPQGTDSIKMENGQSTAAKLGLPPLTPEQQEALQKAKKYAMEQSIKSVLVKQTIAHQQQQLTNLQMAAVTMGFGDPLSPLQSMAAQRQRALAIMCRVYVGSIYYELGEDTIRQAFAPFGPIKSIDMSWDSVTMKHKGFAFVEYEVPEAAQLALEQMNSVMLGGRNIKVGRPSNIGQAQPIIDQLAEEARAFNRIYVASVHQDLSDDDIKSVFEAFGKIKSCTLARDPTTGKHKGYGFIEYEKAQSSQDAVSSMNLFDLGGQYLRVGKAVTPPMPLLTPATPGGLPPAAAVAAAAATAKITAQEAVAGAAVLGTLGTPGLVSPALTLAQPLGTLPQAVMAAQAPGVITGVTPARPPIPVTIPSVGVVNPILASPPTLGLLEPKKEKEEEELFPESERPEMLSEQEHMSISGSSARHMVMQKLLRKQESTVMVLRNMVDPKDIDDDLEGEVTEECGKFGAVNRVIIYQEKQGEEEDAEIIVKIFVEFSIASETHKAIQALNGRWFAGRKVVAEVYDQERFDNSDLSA
Assay: phage ELISA signal ratio (GST-PRM binding over GST background); higher = stronger binding of peptide-phage to the PRM
reported.endpoint: phage ELISA signal ratio
Enter the number alone.

Below, 3 binders whose answers are already recorded.
- MNWGEMWDVRDDQVMV: 7.64
- NKWDMEHWDTEYRSPV: 4.03
- WSSKWDVIDKDYGIMH: 7.28

We next turn to a different binder, shown below.
Query: Suppose we examine the binder SRWDQQPGQWIKLSEN ; what phage ELISA signal ratio value has been reported?
Response: 12
